Reported IC50 is given for each of the following molecules.
- study system: OXA-48 (UniProt Q6XEC0)
- assay details: β-lactamase enzyme inhibition assay, Class D oxacillinase
- condition label: read-out: OXA-48

N[C@H]1CCN(C(=O)c2cn(CC(=O)N[C@H]3Cc4cccc(C(=O)O)c4OB3O)nn2)C1 [Example 66]: 100 to 1000 nM

Please look at NCc1nnn(CC(=O)N[C@H]2Cc3cccc(C(=O)O)c3OB2O)c1Cl [Example 107] and tell me its recorded IC50 on OXA-48 (UniProt Q6XEC0).
< 100 nM

State the measured IC50 (OXA-48 (UniProt Q6XEC0)) of O=C(Cc1nnn[nH]1)N[C@H]1Cc2cccc(C(=O)O)c2OB1O [Example 40]
100 to 1000 nM

Name the recorded IC50 of Nc1n[nH]c2ncc(-c3cn(CC(=O)N[C@H]4Cc5cccc(C(=O)O)c5OB4O)nn3)cc12 [Example 36] , assay system OXA-48 (UniProt Q6XEC0).
100 to 1000 nM
